# System: Pseudomonas aeruginosa 104
# PROTOCOL: minimal inhibitory concentration, agar dilution method
# Format: cell-based
# Source text: When determined according to the agar dilution method, the penicillins (I) afford the minimal inhibitory concentrations against test microorganisms as shown in Table 2.
Known MIC of a selection of compounds

| COMPOUND | VALUE UNIT | MIC |
| --- | --- | --- |
| CC1(C)S[C@@H]2[C@H](NC(=O)[C@H](NC(=O)c3cnc4ccccc4c3O)c3cccc(O)c3)C(=O)N2[C@H]1C(=O)O [Example 13] | µg/mL | 6.25 |
| CC1(C)S[C@@H]2[C@H](NC(=O)[C@H](NC(=O)c3cnc4cncnc4c3O)c3ccc(O)cc3)C(=O)N2[C@H]1C(=O)O [Example 34] | µg/mL | 1.56 |
| COc1nc(OC)c2c(O)c(C(=O)N[C@@H](C(=O)N[C@@H]3C(=O)N4[C@@H]3SC(C)(C)[C@@H]4C(=O)O)c3ccc(O)cc3)cnc2n1 [Example 28] | µg/mL | 3.13 |
